Target chain: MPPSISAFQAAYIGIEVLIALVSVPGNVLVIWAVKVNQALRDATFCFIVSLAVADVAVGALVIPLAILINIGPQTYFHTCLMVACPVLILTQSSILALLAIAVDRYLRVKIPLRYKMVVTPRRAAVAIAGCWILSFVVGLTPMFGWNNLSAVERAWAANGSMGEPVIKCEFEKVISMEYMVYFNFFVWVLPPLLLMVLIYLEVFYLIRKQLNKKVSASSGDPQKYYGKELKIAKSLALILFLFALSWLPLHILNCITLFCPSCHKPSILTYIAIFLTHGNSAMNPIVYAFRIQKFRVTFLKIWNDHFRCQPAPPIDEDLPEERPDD
pKi: −log10 of the molar value.
measured-metric: pKi

A: Nc1cc(OCc2ccccc2)nc(SCc2ccccc2)n1
B: CC(C)COc1cc(N)nc(SCc2ccccc2)n1
Query: Between A and B , which one shows the larger pKi value? Your choice should be expressed through its label.
Response: A
(A: 5.92, B: 5.71)

These data points were gathered from BindingDB's records for doi:10.1111/cbdd.12801.
